system.under.test: T1, human EGFRvIII expressed on cells (human, UniProt P00533 298-1210)
T1 construct: the F98-npEGFRvIII line was obtained from ATCC and its construct is not described; also called F98-npEGFRvIII; F98-EGFRvIII
assay.notes: flow cytometry, F98-npEGFRvIII against F98, F98-EGFRwt and A431 cells
# fold MFI on EGFRvIII expressing cell line over non-expressing cell lines per entry

Illustrative cases are given below, each with its answer.
11B11 (antibody, V domains shown, Hybridoma supernatant (AlivaMab mouse); captured/detected via mouse Fc) VH: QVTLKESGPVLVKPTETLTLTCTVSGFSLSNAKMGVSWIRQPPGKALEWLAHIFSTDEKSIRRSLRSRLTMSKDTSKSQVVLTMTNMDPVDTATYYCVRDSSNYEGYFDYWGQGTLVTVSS VL: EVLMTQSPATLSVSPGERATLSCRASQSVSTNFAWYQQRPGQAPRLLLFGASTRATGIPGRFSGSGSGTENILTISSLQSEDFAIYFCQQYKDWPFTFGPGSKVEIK: ≥ 10 fold
42G9 (antibody, V domains shown, Hybridoma supernatant (AlivaMab mouse); captured/detected via mouse Fc; also called mAb 42G9) VH: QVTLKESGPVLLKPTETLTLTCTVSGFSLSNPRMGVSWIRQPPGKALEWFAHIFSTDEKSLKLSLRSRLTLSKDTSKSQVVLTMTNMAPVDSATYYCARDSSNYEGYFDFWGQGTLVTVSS VL: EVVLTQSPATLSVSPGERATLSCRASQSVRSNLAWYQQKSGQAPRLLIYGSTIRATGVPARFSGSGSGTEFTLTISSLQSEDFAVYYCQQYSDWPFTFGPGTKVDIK: ≥ 10 fold

# return recorded fold MFI on EGFRvIII expressing cell line over non-expressing cell lines for entry 34E7 (antibody, V domains shown, Hybridoma supernatant (AlivaMab mouse); captured/detected via mouse Fc) VH: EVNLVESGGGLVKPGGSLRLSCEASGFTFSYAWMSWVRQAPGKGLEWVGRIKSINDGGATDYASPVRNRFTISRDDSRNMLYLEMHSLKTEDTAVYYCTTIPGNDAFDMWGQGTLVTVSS VL: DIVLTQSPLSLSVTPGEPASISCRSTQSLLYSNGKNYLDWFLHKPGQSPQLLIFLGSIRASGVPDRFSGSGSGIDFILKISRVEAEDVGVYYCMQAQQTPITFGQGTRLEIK
≥ 10 fold
